- test_target: α4β1 (Homo sapiens, UniProt P05556+P13612)
- Construct: Of the integrins analysed J6 express only α5β1 and α4βwhile HL60 express α4β1 and α5β1 and αLβ2; endogenous in cells; host or cells: J6 cells
- Sequence (P13612 34-1032): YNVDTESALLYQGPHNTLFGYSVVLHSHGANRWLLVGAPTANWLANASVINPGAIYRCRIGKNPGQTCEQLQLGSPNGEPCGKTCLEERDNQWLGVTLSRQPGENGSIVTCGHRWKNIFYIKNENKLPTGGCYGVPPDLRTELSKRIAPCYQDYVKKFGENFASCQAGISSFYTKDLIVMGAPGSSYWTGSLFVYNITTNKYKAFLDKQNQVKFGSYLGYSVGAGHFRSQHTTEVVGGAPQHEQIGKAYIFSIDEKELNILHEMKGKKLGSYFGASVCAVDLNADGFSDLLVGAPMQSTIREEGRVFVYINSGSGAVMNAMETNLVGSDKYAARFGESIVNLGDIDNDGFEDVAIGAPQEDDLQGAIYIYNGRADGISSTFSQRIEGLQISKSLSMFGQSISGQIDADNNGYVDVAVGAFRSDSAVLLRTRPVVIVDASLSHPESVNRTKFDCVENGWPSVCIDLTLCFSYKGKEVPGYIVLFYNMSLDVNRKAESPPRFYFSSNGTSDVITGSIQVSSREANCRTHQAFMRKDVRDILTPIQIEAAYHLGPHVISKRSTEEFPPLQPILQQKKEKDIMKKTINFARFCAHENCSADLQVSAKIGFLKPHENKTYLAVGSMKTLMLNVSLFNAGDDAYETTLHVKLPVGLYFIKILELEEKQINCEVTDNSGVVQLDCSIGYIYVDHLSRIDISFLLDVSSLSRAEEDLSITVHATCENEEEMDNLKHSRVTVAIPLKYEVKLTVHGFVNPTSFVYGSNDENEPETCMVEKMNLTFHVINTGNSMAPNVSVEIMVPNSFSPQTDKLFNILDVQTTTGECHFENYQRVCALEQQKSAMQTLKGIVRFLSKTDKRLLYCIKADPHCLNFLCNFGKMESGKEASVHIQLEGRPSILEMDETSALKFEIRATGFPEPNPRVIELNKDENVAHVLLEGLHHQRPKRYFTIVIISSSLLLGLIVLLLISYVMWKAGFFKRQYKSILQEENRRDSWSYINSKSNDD
- Sequence (P05556 21-798): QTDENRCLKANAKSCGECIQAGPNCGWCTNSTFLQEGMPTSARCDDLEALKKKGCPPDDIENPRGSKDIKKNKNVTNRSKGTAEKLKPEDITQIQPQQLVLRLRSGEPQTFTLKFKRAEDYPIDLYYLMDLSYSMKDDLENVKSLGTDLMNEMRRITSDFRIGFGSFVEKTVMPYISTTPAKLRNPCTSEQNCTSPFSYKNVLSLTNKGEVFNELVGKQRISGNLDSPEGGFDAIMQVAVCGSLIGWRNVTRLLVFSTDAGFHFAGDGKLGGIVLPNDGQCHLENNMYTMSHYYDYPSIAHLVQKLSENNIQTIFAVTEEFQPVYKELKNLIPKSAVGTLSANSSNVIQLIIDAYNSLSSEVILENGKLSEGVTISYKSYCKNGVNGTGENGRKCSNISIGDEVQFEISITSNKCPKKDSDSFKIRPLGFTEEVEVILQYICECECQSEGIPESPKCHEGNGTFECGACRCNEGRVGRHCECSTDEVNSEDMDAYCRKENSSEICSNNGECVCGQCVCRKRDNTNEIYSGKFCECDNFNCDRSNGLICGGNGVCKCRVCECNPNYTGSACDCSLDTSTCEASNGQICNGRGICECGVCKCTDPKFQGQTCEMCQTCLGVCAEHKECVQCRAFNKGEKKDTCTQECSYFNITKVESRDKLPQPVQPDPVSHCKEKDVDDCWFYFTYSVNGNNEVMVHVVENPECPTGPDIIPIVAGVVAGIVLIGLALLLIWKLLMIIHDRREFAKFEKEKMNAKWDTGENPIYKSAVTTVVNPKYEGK
- assay_comment: J6 cell adhesion to GST-CS-1 (CS-1 fragment of fibronectin)
- Assay type: cell-based
- test_context: SVVYGLR peptide with the residue mutated to alanine
readout_name: Relative potency compared to parent peptide SVVYGLR against α4β1 (J6 adhesion to GST-CS-1)

Tyr165: SVVYGLR synthetic peptide in which Tyr165 is mutated to alanine (SVVAGLR; SVVYGLR peptide; UniProt P10451 162-168, looked up, variant Y165A) = reduced the potency
Val163: SVVYGLR synthetic peptide in which Val163 is mutated to alanine (SAVYGLR; SVVYGLR peptide; UniProt P10451 162-168, looked up, variant V163A) = reduced the potency
